Biological target: Potassium-transporting ATPase (Canis familiaris)
Test: Inhibitory activity against dog gastric proton-pump enzyme H+/K+ ATPase
pIC50: −log10 of the molar value.
reported-endpoint: pIC50

# count of solved cases: 8
# query: pIC50 | item "CN(C)Cc1cccc(-c2csc(N=C(N)N)n2)c1" | system: Potassium-transporting ATPase (Canis familiaris)
4.43

Lab request: please report pIC50 under test system Potassium-transporting ATPase (Canis familiaris) for "N=C(N)Nc1nc(-c2cccc(Cl)c2)cs1"
4.28

Query for Potassium-transporting ATPase (Canis familiaris): what pIC50 does the record show for "Cc1sc(N=C(N)N)nc1-c1c[nH]c(C=O)c1" ?
4.55

Query pIC50 on Potassium-transporting ATPase (Canis familiaris) for "COC(=O)c1ccc2[nH]cc(-c3csc(NC(=N)NCc4ccccc4)n3)c2c1"
5.51

Give the reported pIC50 for "CCCCCC/N=C(\N)Nc1nc(-c2c[nH]c(C)c2)cs1" (system: Potassium-transporting ATPase (Canis familiaris)).
5.15

Query pIC50 on Potassium-transporting ATPase (Canis familiaris) for "Cc1ccccc1-c1csc(N=C(N)N)n1"
4.70

Form field - read-out: pIC50; system: Potassium-transporting ATPase (Canis familiaris); submitted item: "Cc1cc(-c2nc(N=C(N)N)sc2C)c[nH]1"
5.92

State its pIC50 on Potassium-transporting ATPase (Canis familiaris): "Cc1ccc2[nH]cc(-c3csc(N=C(N)N)n3)c2c1"
5.74

a. Cc1[nH]c2ccccc2c1-c1csc(N=C(N)N)n1
b. COc1ccccc1-c1csc(N=C(N)N)n1
I'm curious whether a or b has the smaller pIC50 number. Which is it? Provide the label of your selected option as the answer.
b
(b: 4.57, a: 5.05)

* * *

Tested on: Potassium-transporting ATPase (Canis familiaris)
Test: Percent inhibition of gastric proton-pump enzyme H+/K+ ATPase was determined at 50 uM
Conditions: Canis lupus familiaris, Stomach
reported-endpoint: inhibition (%)

The examples below pair each entry with its known result.
Could you tell me which inhibition is on file for "COc1ccccc1-c1csc(NC(=N)NCc2ccccc2)n1" ?
99

Need inhibition, item "CN(C)Cc1ccccc1-c1csc(N=C(N)N)n1"
27

Form field: reported inhibition of "Cc1sc(N=C(N)N)nc1-c1c[nH]c(C=O)c1"
77

P. COc1ccc(-c2csc(NC(=N)NCc3ccccc3)n2)cc1OC
Q. Cc1ccc(-c2csc(NC(=N)NCc3ccccc3)n2)n1S(=O)(=O)c1ccccc1
Please choose the item with the lower inhibition value from this pair: P and Q Please respond with the label that marks your chosen entry.
P
(P: 25%, Q: 57%)

* * *

Target: Potassium-transporting ATPase (Canis familiaris)
Assay: Inhibitory activity against dog gastric proton-pump enzyme H+/K+ ATPase
pIC50: −log10 of the molar value.
reported-endpoint: pIC50

These solved cases illustrate the format of a correct answer.
Suppose we examine the compound "Cl.N/C(=N\Cc1ccccc1)Nc1nc(-c2ccc(O)c(O)c2)cs1" ; what pIC50 value has been reported?
6.52

Form field: reported pIC50 of "Cc1ccc2c(-c3csc(NC(=N)NCc4ccccc4)n3)c[nH]c2c1"
5.80

What pIC50 value was documented for this compound, "Cc1ccc(-c2csc(NC(=N)NCc3ccccc3)n2)n1S(=O)(=O)c1ccccc1" ?
4.59

Can you look up the measured pIC50 of "Cc1cc(-c2csc(NC(=N)NCc3ccccc3)n2)c[nH]1" for me?
4.96

// lookup pIC50 for "N=C(NCc1ccccc1)Nc1nc(-c2c[nH]c3ccc(Cl)cc23)cs1"
6.15

1. Cc1cccc2c(-c3csc(NC(=N)NCc4ccccc4)n3)c[nH]c12
2. Cl.N=C(N)Nc1nc(-c2c[nH]c3ccc(Cl)cc23)cs1
Could you determine which record has the numerically smaller pIC50? Candidates: 1 and 2 Please identify the chosen entry by its label.
2
